# key: entry, value: chromatographic logP
assay-protocol: logP determination by retention times (calibration with alkan-2-ones)
metric-name: chromatographic logP

{"compound": "CC(=O)c1cccc(Nc2nccc(-c3sc(C4CC4)nc3C)n2)c1", "metric-name": "chromatographic logP", "test-value": 2.88}
{"compound": "Cc1nc(C)c(-c2ccnc(Nc3ccc(N(C)C)c(Cl)c3)n2)s1", "metric-name": "chromatographic logP", "test-value": 2.06}
{"compound": "Cc1nc(C(C)C)sc1-c1ccnc(Nc2cccc(O)c2)n1", "metric-name": "chromatographic logP", "test-value": 2.42}
{"compound": "COc1ccc(Nc2nccc(-c3sc(N)nc3C)n2)cc1OC", "metric-name": "chromatographic logP", "test-value": 1.28}
{"compound": "COc1cccc(Nc2nccc(-c3sc(C)nc3C)n2)c1", "metric-name": "chromatographic logP", "test-value": 2.64}
{"compound": "CCc1nc(C)c(-c2ccnc(Nc3cccc(O)c3)n2)s1", "metric-name": "chromatographic logP", "test-value": 2.12}
{"compound": "CSc1nc(C)c(-c2ccnc(Nc3ccc(C(F)(F)F)cc3)n2)s1", "metric-name": "chromatographic logP", "test-value": 4.37}
{"compound": "COCc1nc(C)c(-c2ccnc(Nc3ccc(OC)c(OC)c3)n2)s1", "metric-name": "chromatographic logP", "test-value": 2.23}
{"compound": "COc1cccc(Nc2nccc(-c3sc(C(C)C)nc3C)n2)c1", "metric-name": "chromatographic logP", "test-value": 3.5}
